# target_or_system: T1, human GIP receptor (human) (UniProt P48546)
# T1 sequence (looked up): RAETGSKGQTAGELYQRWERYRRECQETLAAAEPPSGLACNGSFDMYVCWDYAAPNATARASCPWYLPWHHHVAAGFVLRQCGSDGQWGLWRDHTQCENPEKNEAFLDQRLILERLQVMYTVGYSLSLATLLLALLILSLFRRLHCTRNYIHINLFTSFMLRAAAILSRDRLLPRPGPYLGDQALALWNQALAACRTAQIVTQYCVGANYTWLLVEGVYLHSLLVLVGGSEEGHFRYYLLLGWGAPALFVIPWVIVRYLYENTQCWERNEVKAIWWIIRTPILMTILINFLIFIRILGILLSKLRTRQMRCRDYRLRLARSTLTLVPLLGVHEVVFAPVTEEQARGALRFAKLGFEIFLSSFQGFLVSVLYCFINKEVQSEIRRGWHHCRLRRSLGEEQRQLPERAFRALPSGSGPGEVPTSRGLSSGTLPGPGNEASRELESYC
# test_summary: cell-based or functional assay
Starred links: 1 amine or outer side, 2 acyl side, 3 side chain; linkers in the order of their positions; H or OH if unused. Non-standard residues stand in square brackets, D forms with d. Groups on a side chain read outwards from the residue. No end group written: not given here. *: point of attachment. C18 diacid = O=C(O)CCCCCCCCCCCCCCCCC(=O)*; γGlu = O=C(O)[C@H](CCC(=O)[*:2])N[*:1]; 4Pal = N[C@@H](Cc1ccncc1)C(=O)O; αMeL = CC(C)C[C@](C)(N)C(=O)O; Dab = NCC[C@H](N)C(=O)O; AEEA = NCCOCCOCC(=O)O; Aib = CC(C)(N)C(=O)O
quantity: cAMP Rel EC50, nM (1% HSA) (nM)
All answers are understood in nM, so give the number only.

[[record]]
binder = "Y[Aib]QGTFTSD[4Pal]S[Dab][αMeL]LDKK([AEEA-γGlu-C18 diacid])AQ[Aib]AFIEYLIE[Aib]GESSGAPPPSGS-NH2 [Example 188]"
quantity = "cAMP Rel EC50, nM (1% HSA)"
value = 43.8


*Q* If you can, please state the reported cAMP Rel EC50, nM (1% HSA) value of YXQGTXTSDXXIXLDXKAQXEFIEXLVEGGPSSGEPPPSGE (synthetic construct; SITE 2: note = 2-Aminoisobutyric Acid; SITE 6: note = alpha-methyl-2-fluoro-L-phenylalanine; SITE 10: note = 3-(4-Pyridyl)-L-alanine; SITE 11: note = alpha-methyl-L-serine; SITE 13: note = alpha-methyl-leucine; SITE 16: note = L-ornithine; SITE 17: note = Lysine is chemically mo) [Example 750] .
*A* 1.34

*Q* If you can, please state the reported cAMP Rel EC50, nM (1% HSA) value of YXQGTFTSDFSXXLDKKAQXAFIEWLLEGGSSSGAPPPSGT (synthetic construct; SITE 2: note = 2-Aminoisobutyric Acid; SITE 12: note = L-ornithine; SITE 13: note = alpha-methyl-leucine; SITE 17: note = Lysine is chemically modified through conjugation of the epsilon-amino group of the Lysine side chain with (2-[2-(2-Amino-ethoxy)-ethoxy]-acetyl)-(gamma-Glu)) [Example 174] .
*A* 20.8
